biological target: Human Leukocyte Elastase (HLE) (Homo sapiens); test: Inhibition of Human Leukocyte Elastase (HLE); hydrolysis of Methoxy-succinyl-Alanyl-Alanyl-Prolyl-Valyl-nitroanilide; format: biochemical; conditions: 2.0 × 10^-5 Molar
Sequence (P08246 30-267): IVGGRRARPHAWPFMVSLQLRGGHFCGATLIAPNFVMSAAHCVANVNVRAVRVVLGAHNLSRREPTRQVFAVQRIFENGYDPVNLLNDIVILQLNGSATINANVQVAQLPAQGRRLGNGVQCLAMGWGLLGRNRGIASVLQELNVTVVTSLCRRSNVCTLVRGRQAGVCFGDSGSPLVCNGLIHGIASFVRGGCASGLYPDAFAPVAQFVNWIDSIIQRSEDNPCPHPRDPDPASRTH
readout name: inhibition at 20 µM (%)

[[record]]
compound = "CCCCCCCCCCCCCCCCCCOCc1cc(=O)c(O)co1"
readout_name = "inhibition at 20 µM"
reading = 50

[[record]]
compound = "CCCCCCCCCCCCCCCCOc1coc(C(=O)O)cc1=O"
readout_name = "inhibition at 20 µM"
reading = 86

[[record]]
compound = "CCCCCCCCCCCCCCCCOCc1cc(=O)c(OC(=O)CC(C)C)co1"
readout_name = "inhibition at 20 µM"
reading = 67

[[record]]
compound = "CCCCCCCCCCCCCCCCOc1coc(COC(=O)C(C)(C)C)cc1=O"
readout_name = "inhibition at 20 µM"
reading = 65

[[record]]
compound = "CCCCCCCCCCCCCCCCOCc1cc(=O)c(OC(=O)C(C)C(C)C)co1 (stereo not drawn)"
readout_name = "inhibition at 20 µM"
reading = 59

[[record]]
compound = "CCCCCCCCCCCCCCCCOc1coc(COC2CCCCO2)cc1=O (stereo not drawn)"
readout_name = "inhibition at 20 µM"
reading = 23

[[record]]
compound = "CCCCCCCCCCCCCCOCc1cc(=O)c(OC(=O)C(C)(C)C)co1"
readout_name = "inhibition at 20 µM"
reading = 88

[[record]]
compound = "CCCCCCCCCCCCCCOCc1cc(=O)c(O)co1"
readout_name = "inhibition at 20 µM"
reading = 48

[[record]]
compound = "CCCCCCCCCCCCCCCCCCOCc1cc(=O)c(OCc2ccccc2)co1"
readout_name = "inhibition at 20 µM"
reading = 24

[[record]]
compound = "CCCCCCCCCCCCCCCCOCc1cc(=O)c(OC(=O)C(C)(C)C)co1"
readout_name = "inhibition at 20 µM"
reading = 89

[[record]]
compound = "CCCCCCCCCCCCCCCCCCOCc1cc(=O)c(OC(=O)C(C)(C)C)co1"
readout_name = "inhibition at 20 µM"
reading = 66

[[record]]
compound = "CCCCCCCCCCCCCCCCOCc1cc(=O)c(O)co1"
readout_name = "inhibition at 20 µM"
reading = 23

